Here the recorded self-cleavage is given for each entry.
B1: HDV Ribozyme (parent)
chain: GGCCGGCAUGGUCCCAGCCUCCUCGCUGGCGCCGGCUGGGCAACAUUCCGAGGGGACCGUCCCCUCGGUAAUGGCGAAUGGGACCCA

Variants of: B1
procedure_text: self-cleavage, relative activity (ratio to wild type); higher = more cleavage; co-transcriptional

>  <primary_sequence>
GGCCGGCAUGGUCCCAGCCUCAUCGCUGGCGCCGGCUGGACAACAUUCCGAGGGGACCGUCCCCUCGGUAAUGGCGAAUGGGACCCA [C22A G40A]

>  <self-cleavage>
0.367

$$$$
>  <primary_sequence>
GGCCGGCAUGGUCCCAGCCUCCUCGCUGGCGCCGGCUGGGCAACACUCCGAGGGGACCGUCCCCUCGGUAAUGGCGAAUGGGACUCA [U46C C85U]

>  <self-cleavage>
0.615

$$$$
>  <primary_sequence>
GGCCGGCAUGGUCCCAGCCUCCUCGCUGCCGCCGGCUGGGCAACAUUCCGCGGGGACCGUCCCCUCGGUAAUGGCGAAUGGGACCCA [G29C A51C]

>  <self-cleavage>
0.231

$$$$
>  <primary_sequence>
GGCCGGCAUGGUCCCAGCCUCCUCGGUGGCGCCGGCUGGGCAACAUUCCGAGGGGACCGUCCCCUCGGUAAUGGCGAAUGGGACGCA [C26G C85G]

>  <self-cleavage>
0.965

$$$$
>  <primary_sequence>
GGCCCGCAUGGUCCCAGCCUCCUCGCUGGCGCCGGCUGGGCAACAUUCCGAGGGGACCGUCCCCUCGGUAAUGGAGAAUGGGACCCA [G5C C75A]

>  <self-cleavage>
0.0536

$$$$
>  <primary_sequence>
GUCCGGCAUGGUCCCAGCCUCCUCGCUGGCGCCAGCUGGGCAACAUUCCGAGGGGACCGUCCCCUCGGUAAUGGCGAAUGGGACCCA [G2U G34A]

>  <self-cleavage>
0.0671

$$$$
>  <primary_sequence>
GGCCGGCAUGGUCCCAGCCUCCUCGCUGGCGCCGGCUGGGCAACUUUCCGAGGGGACCGUCCCCUUGGUAAUGGCGAAUGGGACCCA [A45U C66U]

>  <self-cleavage>
1.02

$$$$
>  <primary_sequence>
GGCCGGCAUGCUCCCAGCCUCCUCGCUGGCGCCGGCUGGGCAACAUUCCGAGGGGACCGUCCCCUCGGUAAUGGCGAAUGCGACCCA [G11C G81C]

>  <self-cleavage>
0.0519

$$$$
>  <primary_sequence>
GGCCGGCAUGGUCCCAGCCUCCUCGCUGGCGCCGGCUGGGCAACAUUCCGAGGGGACCGUCCCAUCGGUAAUGGCGUAUGGGACCCA [C64A A77U]

>  <self-cleavage>
0.449

$$$$
>  <primary_sequence>
GGCCGGCAUGGUCCCAGCCUCCUCACUGGCGCCGGCUGGGCAACAUUCCGAGGGGACCGUCCCCUGGGUAAUGGCGAAUGGGACCCA [G25A C66G]

>  <self-cleavage>
0.376

$$$$
>  <primary_sequence>
GGCCGGCAUGGUCCCAGCCUCCUCGCUGGCGCCGGCUGGGCAACAUUCCGAGGGGACCGUCCCCUCGAUAAUGGCGAAUGGGAGCCA [G68A C84G]

>  <self-cleavage>
0.475

$$$$
>  <primary_sequence>
GGCCGGCAUGGUCUCAGCCUCCUCGCUGGCGCCCGCUGGGCAACAUUCCGAGGGGACCGUCCCCUCGGUAAUGGCGAAUGGGACCCA [C14U G34C]

>  <self-cleavage>
0.172

$$$$
>  <primary_sequence>
GGCCGGCCUGGUCCCAGCCUCCUCCCUGGCGCCGGCUGGGCAACAUUCCGAGGGGACCGUCCCCUCGGUAAUGGCGAAUGGGACCCA [A8C G25C]

>  <self-cleavage>
0

$$$$
>  <primary_sequence>
GGCCGGCAUGGUCCCAGCCUCCUCGCUGGCGCCGGCUGGGCAACAUUCCGACGGGACCGUCCCCUCGGUAAUGGCGAAGGGGACCCA [G52C U79G]

>  <self-cleavage>
0.475

$$$$
>  <primary_sequence>
GGCCGGCAUGGUCCCAGCCUCCUCGCUGUAGCCGGCUGGGCAACAUUCCGAGGGGACCGUCCCCUCGGUAAUGGCGAAUGGGACCCA [G29U C30A]

>  <self-cleavage>
0.155

$$$$
>  <primary_sequence>
GGCCGGCAUGGUCCCAGCCUCCUCGCUGGCGCCGGCUGGGCAACAUUCCGAGGGGACCGUCCCCUCGGUAAUGACGAAUGAGACCCA [G74A G81A]

>  <self-cleavage>
0.213

$$$$
>  <primary_sequence>
GGCCGGCAUGGUCCCAGCCUACUCGCUGGCGCCGGCUGGGCAACAUUCCGAGGGGACCAUCCCCUCGGUAAUGGCGAAUGGGACCCA [C21A G59A]

>  <self-cleavage>
0.0936

$$$$
>  <primary_sequence>
GGCCGACAUGGUCCCAGCCUCCUCGCUGGCGCCGGCUGGGCAACAUUCCGAGGGGACCCUCCCCUCGGUAAUGGCGAAUGGGACCCA [G6A G59C]

>  <self-cleavage>
0.587

$$$$
>  <primary_sequence>
GGCCGGCAUGGACCCAGCCUCCUCGCUGGCGCCGGCUGGGCAACAUUCCGAGGCGACCGUCCCCUCGGUAAUGGCGAAUGGGACCCA [U12A G54C]

>  <self-cleavage>
0.269

$$$$
>  <primary_sequence>
GGCCGGCAGGGUCCCAGCCGCCUCGCUGGCGCCGGCUGGGCAACAUUCCGAGGGGACCGUCCCCUCGGUAAUGGCGAAUGGGACCCA [U9G U20G]

>  <self-cleavage>
0

$$$$
>  <primary_sequence>
GGCCGGCAUGGUCCCAGCCUCGUCGCUGGCGCCGGCUGGGCAACAUUCCGAGGGGACCGUCCCCUCGGUAAUGGCGAAUAGGACCCA [C22G G80A]

>  <self-cleavage>
0.135

$$$$
>  <primary_sequence>
GCCCGGCAUGGUCCCAGCCUCCUCGCUGGCGCCGGCUGGGCAACAUUCCGAGGGGACCGUCCGCUCGGUAAUGGCGAAUGGGACCCA [G2C C63G]

>  <self-cleavage>
0.0314

$$$$

Source of measurements: the RNAGym collection of RNA variant scans (doi:10.7554/elife.80360)
